Exercise: state measured GFP response, % of DMSO for each of the compounds provided.
# test-summary: modulators of CIT2-GFP expression in yeast, confirmation, S. cerevisiae, GFP fusion, cherry picks, mother/daughter gates (AID 2274)
# protocol-conditions: S. cerevisiae CIT2-GFP strain, flow cytometry, 3 h; measured here: daughter cell gate; at 10 µM; stronger effect = higher value
Dear colleague, please return just the value in %, with no unit written.

Data request: Please report the measured GFP response, % of DMSO for `C=CCn1c(=O)c(C(=O)Nc2ccccc2O)c(O)c2ccccc21`
Data returned: 105

Data request: Entry CC1CN(c2nc3ccccn3c(=O)c2/C=C(\C#N)C(=O)N2CCOCC2)CC(C)O1 (stereo unspecified) needs its GFP response, % of DMSO filled in; supply it.
Data returned: 99.3

Data request: Report GFP response, % of DMSO, nothing else, for this compound: `O=c1cnnc(SCc2ccc([N+](=O)[O-])cc2)[nH]1`
Data returned: 99.1

Data request: Note down GFP response, % of DMSO recorded for `Oc1ccc(-c2csc(-c3ccccc3)n2)cc1O`
Data returned: 93.7

Data request: Entry `COc1cccc(C(=O)Nc2ccccc2)c1` needs its GFP response, % of DMSO filled in; supply it.
Data returned: 93.6

Data request: State its GFP response, % of DMSO: COc1ccccc1CNC(=O)CS(=O)Cc1nc(-c2ccc(OC)c(OC)c2)oc1C (stereo unspecified)
Data returned: 108

Data request: Dear colleague, please send me the reported GFP response, % of DMSO for `CC(C)Cn1c(=O)c(C(=O)Nc2ccncc2)c(O)c2ccccc21` when you can.
Data returned: 99.7

Data request: Output GFP response, % of DMSO of `CCC(=O)Nc1nc(C)c(-c2csc(Nc3cccc(C(=O)O)c3)n2)s1`
Data returned: 101

Data request: Output GFP response, % of DMSO of `c1ccc(Cn2ncc3ccccc32)cc1`
Data returned: 98.3

Data request: Output GFP response, % of DMSO of `N#Cc1cc(Sc2ccccn2)c([N+](=O)[O-])cc1C#N`
Data returned: 125

Data request: State its GFP response, % of DMSO: Cc1cccc(N2C(=O)CC(Sc3nc(C)c4c(n3)CCCC4)C2=O)c1 (stereo unspecified)
Data returned: 99.1

Data request: Quote GFP response, % of DMSO reported for `CC(C)c1nnc(SCC(=O)N2CCc3ccccc32)n1C` please.
Data returned: 98.1

Data request: For `NC(=O)C1CCN(C(=S)NCCc2ccccc2)CC1` , write its GFP response, % of DMSO.
Data returned: 103

Data request: Look up and report measured GFP response, % of DMSO for this entry: `O=[N+]([O-])/C=C/c1c(OCc2ccccc2)ccc2ccccc12`
Data returned: 103

Data request: Report GFP response, % of DMSO, nothing else, for this compound: `CNc1cc(CSC)nc(SCc2ccc(Cl)cc2Cl)n1`
Data returned: 86.2

Data request: Determine its reported GFP response, % of DMSO: `CC(C)(C)C(=O)NC(=S)NNC(=O)c1ccc(-c2ccccc2)cc1`
Data returned: 99.3
